Could you please report measured log10 EC50 for the items listed next?
TARGET OR TEST SYSTEM: human M4 muscarinic acetylcholine receptor (Homo sapiens, UniProt P08173)
Sequence (P08173 1-479): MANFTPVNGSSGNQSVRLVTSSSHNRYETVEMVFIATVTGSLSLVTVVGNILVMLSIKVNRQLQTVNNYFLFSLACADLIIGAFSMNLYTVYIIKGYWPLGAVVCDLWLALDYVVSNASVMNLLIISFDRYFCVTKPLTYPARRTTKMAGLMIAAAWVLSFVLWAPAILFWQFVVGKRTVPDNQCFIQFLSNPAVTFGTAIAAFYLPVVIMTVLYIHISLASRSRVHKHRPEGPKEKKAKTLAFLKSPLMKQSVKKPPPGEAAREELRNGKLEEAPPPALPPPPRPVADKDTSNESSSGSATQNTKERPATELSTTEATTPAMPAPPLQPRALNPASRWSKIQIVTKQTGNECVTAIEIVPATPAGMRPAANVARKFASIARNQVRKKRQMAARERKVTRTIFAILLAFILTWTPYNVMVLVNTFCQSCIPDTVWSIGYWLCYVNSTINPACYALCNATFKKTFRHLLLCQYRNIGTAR
TEST NAME: human FLIPR-based M4 PAM assay (calcium mobilization in CHO-K1 cells with human M4 receptor and Gαqi5)
TEST CONTEXT: inflection point of dose response curve, acetylcholine at 20% of maximum response, FLIPR Tetra, read-out: M4 PAM IP
Protocol: In a typical experiment the M4 muscarinic acetylcholine receptor modulating activity of the compounds of the present invention was determined in accordance with the following experimental method. […] Following dye loading the cell plates are placed in a FLIPR Tetra instrument and while monitoring dye fluorescence (excitation […]), 10 uL of test substance at increasing concentrations is added, and fluorescence values are recorded for 4 min. […]
For clarity, the numbers are log10 values of EC50 expressed in nM.

Solved cases (5 shown):
Form field: log10 EC50 recorded for CN1C(=O)c2cc(-c3nc4c(cc3-c3cnn(CC5(C)CCCC5)c3)CCC4)cnc2C1(C)C with human M4 muscarinic acetylcholine receptor (Homo sapiens, UniProt P08173) (enter value) 1.54

// fetch human M4 muscarinic acetylcholine receptor (Homo sapiens, UniProt P08173) log10 EC50 for Cc1cc(-c2cnn(CC3(C)CCCC3)c2)c(-c2ccc3c(c2)C(=O)N(C)C3)nc1CO 1.93

Requested read-out log10 EC50, target or system human M4 muscarinic acetylcholine receptor (Homo sapiens, UniProt P08173), entry CC1(Cn2cc(-c3ccc(C#N)nc3-c3ccc4c(c3)C(=O)N(CC3CC3)C4)cn2)CCCC1 0.85

Param readout = log10 EC50; param system = human M4 muscarinic acetylcholine receptor (Homo sapiens, UniProt P08173); param query = CN1Cc2ccc(-c3nc(C#N)c(N)cc3-c3cnn(CC4(C)CCCC4)c3)cc2C1=O ; response: value 1.88

# query: log10 EC50 | item O=C1c2cc(-c3nccc(F)c3-c3cnn(CC4CCCC4)c3)ccc2CN1CC1CC1 | system: human M4 muscarinic acetylcholine receptor (Homo sapiens, UniProt P08173) 1.34

Dear colleague, could you please provide log10 EC50 for the compounds listed below?
1. C#CCN1Cc2ccc(-c3nc(C#N)ccc3-c3cnn(CC4(C)CCCC4)c3)cc2C1=O [Example 120A]
2. Cc1cc(-c2cnn(CC3(C)CCCC3)c2)c(-c2ccc3c(c2)C(=O)N(C)C3)nc1CF

1. 1.23
2. 1.76

Hey, just so you know, these numbers are from patent US10933056B2.
